Reference source for all entries: patent US20140056964A1

The reader will find reported pIC50 values listed item by item below.
target: Granzyme B (Homo sapiens); assay: continuous colorimetric Granzyme B inhibition assay with substrate Ac-IEPD-pNA; assay type: biochemical; details: substrate Ac-IEPD-pNA 20 μM, 37° C., pNA release at 405 nm
pIC50: −log10 of the molar value.

Q: Could you share what pIC50 was measured for `CC(=O)c1ccccc1NC(=O)/C(O)=C(/C(=O)c1ccccc1-c1ccccc1)[C@@H]1OC(=O)c2ccccc21` , tested on Granzyme B (Homo sapiens)?
Result: ~3.60

Shifting focus to the compound that follows.
Q: # returns recorded pIC50 (system: Granzyme B (Homo sapiens)) for `CC(=O)c1ccc(NC(=O)/C(O)=C(\C(=O)/C=C\c2ccccc2)[C@@H]2OC(=O)c3ccccc32)cc1`
Result: ~4.60

---

Measured pIC50 (Granzyme B (Homo sapiens, UniProt P10144))
pIC50: −log10 of the molar value.

Example entries and their recorded answers appear below.
Q: State its pIC50 on Granzyme B (Homo sapiens, UniProt P10144): CC(=O)CCC(=O)CC(=O)CCC(=O)Nc1cc(Cl)ccc1Cl [ZINC05316859]
Sequence (P10144 21-247): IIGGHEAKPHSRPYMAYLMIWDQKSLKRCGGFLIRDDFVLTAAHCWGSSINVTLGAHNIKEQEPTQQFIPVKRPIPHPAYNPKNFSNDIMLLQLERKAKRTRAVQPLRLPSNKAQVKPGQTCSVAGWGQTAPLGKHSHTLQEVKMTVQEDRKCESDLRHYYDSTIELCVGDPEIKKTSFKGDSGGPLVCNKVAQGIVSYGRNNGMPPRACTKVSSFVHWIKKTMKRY
Result: ~3.60

Q: What is its pIC50 for Granzyme B (Homo sapiens, UniProt P10144)? Entry: CC[C@H](C)[C@H](NC(=O)Cc1csc2ccccc12)C(=O)N[C@H]1CCc2cccc3c2N(C1=O)[C@H](C(=O)NCc1c[nH]nn1)C3 [Willoughby 20]
Result: ~5.51

Q: Report pIC50 for O=C1CCC(=O)/C(=C(/O)CCC(=O)Nc2cccc(Cl)c2)C1 [ZINC05315460] tested on Granzyme B (Homo sapiens, UniProt P10144).
Result: ~4.00

Q: Give recorded pIC50 with Granzyme B (Homo sapiens, UniProt P10144) for the following compound: O=C(Nc1ccc(Cl)cc1Cl)/C(O)=C\C(=O)[C@@H]1CCOC1=O (stereo in doubt) [ZINC05605947]
Result: ~3.49

Could you now look at the following compound, please?
Q: Which pIC50 is reported with Granzyme B (Homo sapiens, UniProt P10144) for this entry: Cc1ccc(NC(=O)/C(O)=C(/C(=O)/C=C/c2ccccc2)C2OC(=O)c3ccccc32)c(C)c1 (centres unmarked) [ZINC05723787] ?
Result: ~4.40
